These data points were gathered from ChEMBL document CHEMBL4433257.

Provide the reported pIC50 of each item.
System: LoVo
Assay: Cytotoxicity against human LoVo cells incubated for 48 hrs by MTT assay
Assay type: functional, cell-based
Recall that pIC50 is obtained by taking minus log10 of the concentration measured in molar.

Given the entry COc1cc([C@@H]2c3cc4c(cc3[C@@H](n3cc(COc5cc(=O)oc6ccc(C)cc56)nn3)[C@H]3COC(=O)[C@H]23)OCO4)cc(OC)c1O , report its measured pIC50.
4.48

Given the entry COc1cc([C@@H]2c3cc4c(cc3[C@@H](n3cc(CNc5cc(=O)oc6ccc(Br)cc56)nn3)[C@H]3COC(=O)[C@H]23)OCO4)cc(OC)c1O , report its measured pIC50.
5.06

Given the entry COc1ccc2c(NCc3cn([C@@H]4c5cc6c(cc5[C@@H](c5cc(OC)c(O)c(OC)c5)[C@H]5C(=O)OC[C@@H]54)OCO6)nn3)cc(=O)oc2c1 , report its measured pIC50.
4.90

Given the entry COc1ccc2oc(=O)cc(OCc3cn([C@@H]4c5cc6c(cc5[C@@H](c5cc(OC)c(O)c(OC)c5)[C@H]5C(=O)OC[C@@H]54)OCO6)nn3)c2c1 , report its measured pIC50.
5.03

Given the entry COc1ccc2oc(=O)cc(NCc3cn([C@@H]4c5cc6c(cc5[C@@H](c5cc(OC)c(O)c(OC)c5)[C@H]5C(=O)OC[C@@H]54)OCO6)nn3)c2c1 , report its measured pIC50.
5.31

Given the entry COc1cc([C@@H]2c3cc4c(cc3[C@@H](n3cc(CNc5cc(=O)oc6ccc(C)cc56)nn3)[C@H]3COC(=O)[C@H]23)OCO4)cc(OC)c1O , report its measured pIC50.
4.12

Given the entry COc1cc([C@@H]2c3cc4c(cc3[C@@H](n3cc(CNc5cc(=O)oc6ccccc56)nn3)[C@H]3COC(=O)[C@H]23)OCO4)cc(OC)c1O , report its measured pIC50.
4.41

---

Tested on: A549
Assay: Cytotoxicity against human A549 cells incubated for 48 hrs by MTT assay
Format: functional, cell-based
Conditions: A549, 48 h
Provide the reported IC50 of each item.
Record the value in µM, omitting the unit from your answer.

Given the entry COc1cc([C@@H]2c3cc4c(cc3[C@@H](n3cc(COc5cc(=O)oc6ccc(Br)cc56)nn3)[C@H]3COC(=O)[C@H]23)OCO4)cc(OC)c1O , report its measured IC50.
27.7

Given the entry COc1ccc2oc(=O)cc(OCc3cn([C@@H]4c5cc6c(cc5[C@@H](c5cc(OC)c(O)c(OC)c5)[C@H]5C(=O)OC[C@@H]54)OCO6)nn3)c2c1 , report its measured IC50.
19.6

Given the entry COc1cc([C@@H]2c3cc4c(cc3[C@@H](n3cc(CNc5cc(=O)oc6ccc(Br)cc56)nn3)[C@H]3COC(=O)[C@H]23)OCO4)cc(OC)c1O , report its measured IC50.
8.6

Given the entry COc1cc([C@@H]2c3cc4c(cc3[C@@H](n3cc(CNc5cc(=O)oc6ccc(C)cc56)nn3)[C@H]3COC(=O)[C@H]23)OCO4)cc(OC)c1O , report its measured IC50.
34.8

Given the entry COc1cc([C@@H]2c3cc4c(cc3[C@@H](O[C@@H]3O[C@@H]5CO[C@@H](C)O[C@H]5[C@H](O)[C@H]3O)[C@H]3COC(=O)[C@H]23)OCO4)cc(OC)c1O [ETOPOSIDE] , report its measured IC50.
25.6

Given the entry COc1ccc2c(NCc3cn([C@@H]4c5cc6c(cc5[C@@H](c5cc(OC)c(O)c(OC)c5)[C@H]5C(=O)OC[C@@H]54)OCO6)nn3)cc(=O)oc2c1 , report its measured IC50.
28.1

Given the entry COc1cc([C@@H]2c3cc4c(cc3[C@@H](n3cc(COc5cc(=O)oc6cc(Br)ccc56)nn3)[C@H]3COC(=O)[C@H]23)OCO4)cc(OC)c1O , report its measured IC50.
23.8
